Molecular target: Acetylcholinesterase (Electrophorus electricus, UniProt O42275)
Sequence (O42275 whole entry): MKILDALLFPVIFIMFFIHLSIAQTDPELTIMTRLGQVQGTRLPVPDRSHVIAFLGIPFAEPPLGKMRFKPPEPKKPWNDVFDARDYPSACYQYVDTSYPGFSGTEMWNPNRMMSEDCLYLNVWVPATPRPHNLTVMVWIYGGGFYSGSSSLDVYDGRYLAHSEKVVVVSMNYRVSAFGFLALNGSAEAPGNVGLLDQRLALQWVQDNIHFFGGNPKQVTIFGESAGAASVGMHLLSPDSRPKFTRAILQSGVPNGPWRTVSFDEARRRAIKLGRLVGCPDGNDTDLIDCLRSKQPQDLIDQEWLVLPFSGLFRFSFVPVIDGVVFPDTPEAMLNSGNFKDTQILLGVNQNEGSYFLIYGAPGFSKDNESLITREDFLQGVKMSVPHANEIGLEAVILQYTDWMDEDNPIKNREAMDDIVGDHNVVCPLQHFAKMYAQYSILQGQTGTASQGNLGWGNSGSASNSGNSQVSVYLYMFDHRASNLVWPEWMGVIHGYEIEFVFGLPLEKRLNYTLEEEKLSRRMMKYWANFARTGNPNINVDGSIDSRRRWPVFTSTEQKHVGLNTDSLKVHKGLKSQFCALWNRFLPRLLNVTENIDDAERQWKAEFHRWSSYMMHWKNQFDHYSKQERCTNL
Test: Inhibition of electric eel AChE using acetylthiocholine iodide as substrate preincubated for 15 mins followed by addition of substrate measured after 5 mins
Details: read-out: IC50
Below, each of the molecules is paired with its reported pIC50 value.
Answer as the number alone; pIC50 is minus log10 of concentration in mol/L.

- molecule: "O=C(NCCCCNc1c2c(nc3ccccc13)CCCC2)c1ccc2[nH]c(-c3ccccc3O)nc2c1"
  measured on: "Acetylcholinesterase (Electrophorus electricus, UniProt O42275)"
  result type: "pIC50"
  recorded measurement: 6.68
- molecule: "O=C(NCCNc1c2c(nc3ccccc13)CCCC2)c1ccc2[nH]c(-c3ccccc3O)nc2c1"
  measured on: "Acetylcholinesterase (Electrophorus electricus, UniProt O42275)"
  result type: "pIC50"
  recorded measurement: 7.44
- molecule: "O=C(NCCCCNc1c2c(nc3cc(Cl)ccc13)CCCC2)c1ccc2[nH]c(-c3ccccc3O)nc2c1"
  measured on: "Acetylcholinesterase (Electrophorus electricus, UniProt O42275)"
  result type: "pIC50"
  recorded measurement: 6.85
- molecule: "O=C(NCCCNc1c2c(nc3ccccc13)CCCC2)c1ccc2[nH]c(-c3ccccc3O)nc2c1"
  measured on: "Acetylcholinesterase (Electrophorus electricus, UniProt O42275)"
  result type: "pIC50"
  recorded measurement: 7.51
- molecule: "O=C(NCC(O)CNc1c2c(nc3cc(Cl)ccc13)CCCC2)c1ccc2[nH]c(-c3ccccc3O)nc2c1 (stereo not drawn)"
  measured on: "Acetylcholinesterase (Electrophorus electricus, UniProt O42275)"
  result type: "pIC50"
  recorded measurement: 7.74

# pIC50 (molecule: O=C(NCC(O)CNc1c2c(nc3ccccc13)CCCC2)c1ccc2[nH]c(-c3ccccc3O)nc2c1 (stereo not drawn) ) is 7.77

Just so you know, measured pIC50 for O=C(NCCNc1c2c(nc3cc(Cl)ccc13)CCCC2)c1ccc2[nH]c(-c3ccccc3O)nc2c1 came out at 8.20

Reported pIC50 of O=C(NCCCNc1c2c(nc3cc(Cl)ccc13)CCCC2)c1ccc2[nH]c(-c3ccccc3O)nc2c1 : 7.63

###

Experiment: Metal chelating activity assessed as compound-Cu2+ complex formation at pH 7.4
result type: Kd (nM)
Write the number in nM without appending the unit.

Record O=C(NCCCNc1c2c(nc3cc(Cl)ccc13)CCCC2)c1ccc2[nH]c(-c3ccccc3O)nc2c1 . Reported Kd: 0.01

###

Assay: Copper chelating activity assessed as inhibition of Cu2+-induced amyloid beta (1 to 42) aggregation at 80 uM measured after 24 hrs by ThT fluorescence assay relative to control
result type: inhibition (%)
Only the number, expressed in %, is required.

For orientation, consider the following solved cases.
- compound: "O=C(NCCCNc1c2c(nc3cc(Cl)ccc13)CCCC2)c1ccc2[nH]c(-c3ccccc3O)nc2c1"
  result type: "inhibition"
  endpoint unit: "%"
  recorded measurement: 55.8
- compound: "O=C(NCCNc1c2c(nc3ccccc13)CCCC2)c1ccc2[nH]c(-c3ccccc3O)nc2c1"
  result type: "inhibition"
  endpoint unit: "%"
  recorded measurement: 49.4
- compound: "O=C(NCC(O)CNc1c2c(nc3ccccc13)CCCC2)c1ccc2[nH]c(-c3ccccc3O)nc2c1 (stereo not given)"
  result type: "inhibition"
  endpoint unit: "%"
  recorded measurement: 59.5
- compound: "O=C(NCCCCNc1c2c(nc3ccccc13)CCCC2)c1ccc2[nH]c(-c3ccccc3O)nc2c1"
  result type: "inhibition"
  endpoint unit: "%"
  recorded measurement: 65.5

With those in mind, consider the next compound.
The measured inhibition associated with O=C(NCCCNc1c2c(nc3ccccc13)CCCC2)c1ccc2[nH]c(-c3ccccc3O)nc2c1 reads 77.3

Just for reference, ChEMBL document CHEMBL4196026 is where these values come from.
